# Assay Explanation: Cmax in BALB/c mouse at 50 mg/kg, ip
# Type: ADME, organism-based
# Design: dose 50 mg/kg, route intraperitoneal
# Study Conditions: in vivo
Readout Type: Cmax (µM)
Give a bare numeral; the unit µM is implied.

Notebook: N#CC(C(=O)NCC(=O)NC1CC1)c1nc2ccc(-c3ccccc3)cc2s1 (racemic) , Cmax read as 28

---

# Assay Explanation: Tmax in BALB/c mouse at 10 mg/kg, po
# Assay type: ADME, organism-based
# Study Conditions: in vivo
Readout Type: Tmax (min)
Value expressed in min; do not type the unit.

// Tmax lookup, compound = N#CC(C(=O)NCC(=O)NC1CC1)c1nc2ccc(-c3ccccc3)cc2s1 (racemic) , result: 15

Entry source: ChEMBL document CHEMBL4396970
